// reported cell scattering score, MLP29, 0.012 nM per item
molecular target: native mouse MET on living mouse cells (mouse, UniProt P16056 25-1379); assay: cell-based or functional assay
The reply should contain only the number, in score 0-4.

Solved cases below.
chimeric llama-human IgG1 mAb 76H10 (antibody, V domains shown) VH: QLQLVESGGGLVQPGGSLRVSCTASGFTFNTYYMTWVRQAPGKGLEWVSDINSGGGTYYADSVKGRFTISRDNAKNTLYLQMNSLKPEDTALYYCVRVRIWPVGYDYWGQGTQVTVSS VL: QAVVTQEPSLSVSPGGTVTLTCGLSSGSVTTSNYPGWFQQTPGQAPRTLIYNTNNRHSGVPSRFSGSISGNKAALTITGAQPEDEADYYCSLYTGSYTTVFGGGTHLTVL :: 0
chimeric llama-human IgG1 mAb 71D6 (antibody, V domains shown) VH: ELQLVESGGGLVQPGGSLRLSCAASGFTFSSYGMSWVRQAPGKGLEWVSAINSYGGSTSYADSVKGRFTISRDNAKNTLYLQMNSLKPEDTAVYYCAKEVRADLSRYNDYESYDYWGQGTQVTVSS VL: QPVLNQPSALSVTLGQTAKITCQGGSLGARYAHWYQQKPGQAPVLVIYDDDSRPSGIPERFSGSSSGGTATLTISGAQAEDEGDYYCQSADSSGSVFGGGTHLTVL :: 2

Prompt: Sample chimeric llama-human IgG1 mAb 71C3 (antibody, V domains shown) VH: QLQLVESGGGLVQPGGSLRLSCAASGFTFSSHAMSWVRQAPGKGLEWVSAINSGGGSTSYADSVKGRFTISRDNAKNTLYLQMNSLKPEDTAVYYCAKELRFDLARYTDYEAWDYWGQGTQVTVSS VL: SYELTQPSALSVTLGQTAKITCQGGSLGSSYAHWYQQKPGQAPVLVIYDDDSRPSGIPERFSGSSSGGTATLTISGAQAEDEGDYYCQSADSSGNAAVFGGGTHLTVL — what was its cell scattering score, MLP29, 0.012 nM?
Completion: 0
